List of IC50 values.
- SUBJECT OF TEST: Sentrin-specific protease 7 (Homo sapiens)
- Sequence (Q9BQF6 whole entry): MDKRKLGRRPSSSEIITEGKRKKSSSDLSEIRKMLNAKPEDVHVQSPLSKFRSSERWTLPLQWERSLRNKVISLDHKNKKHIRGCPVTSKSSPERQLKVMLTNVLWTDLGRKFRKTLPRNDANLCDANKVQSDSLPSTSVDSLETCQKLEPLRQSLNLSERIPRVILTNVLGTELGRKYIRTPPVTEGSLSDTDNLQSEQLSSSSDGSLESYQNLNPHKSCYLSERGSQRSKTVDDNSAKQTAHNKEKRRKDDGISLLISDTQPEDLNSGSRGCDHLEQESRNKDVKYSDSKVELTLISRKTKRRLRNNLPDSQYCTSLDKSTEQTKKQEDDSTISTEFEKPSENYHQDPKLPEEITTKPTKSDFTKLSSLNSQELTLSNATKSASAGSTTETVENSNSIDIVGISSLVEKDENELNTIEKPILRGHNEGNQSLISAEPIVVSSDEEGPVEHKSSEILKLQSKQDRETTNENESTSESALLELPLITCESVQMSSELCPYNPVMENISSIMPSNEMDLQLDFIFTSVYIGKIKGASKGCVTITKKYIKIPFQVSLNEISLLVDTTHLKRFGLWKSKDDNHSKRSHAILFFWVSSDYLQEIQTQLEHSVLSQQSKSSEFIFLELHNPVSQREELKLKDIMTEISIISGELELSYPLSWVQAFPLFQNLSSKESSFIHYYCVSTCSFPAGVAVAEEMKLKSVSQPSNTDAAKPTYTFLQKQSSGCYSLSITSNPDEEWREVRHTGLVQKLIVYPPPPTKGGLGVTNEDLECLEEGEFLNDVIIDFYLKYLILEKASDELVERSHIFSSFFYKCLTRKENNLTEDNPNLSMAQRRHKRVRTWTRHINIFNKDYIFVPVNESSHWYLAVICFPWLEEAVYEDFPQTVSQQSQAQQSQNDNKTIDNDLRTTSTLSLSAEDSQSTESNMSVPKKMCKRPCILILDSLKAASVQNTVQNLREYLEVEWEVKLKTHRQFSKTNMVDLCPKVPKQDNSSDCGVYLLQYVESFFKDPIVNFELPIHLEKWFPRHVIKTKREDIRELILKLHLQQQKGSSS
- Assay type: functional
Activity calls are given as the source filed them.

COc1ccc(NC(=O)c2ccc(-c3ccccc3Cl)o2)cc1
4.54 µM (active)

Enquiry: # get_value(readout='IC50', item= O=C(Nc1ccccc1)N1CC=C(c2ccc(F)cc2)CC1 )
Return: 14.9 µM (active)

Enquiry: # get_value(readout='IC50', item= COc1cccc2sc(Nc3nc(-c4ccccn4)cs3)nc12 )
Return: 4.38 µM (active)

Enquiry: # get_value(readout='IC50', item= O=C1NC(=O)/C(=C/c2ccc(-c3cccc([N+](=O)[O-])c3)o2)S1 )
Return: 50.7 µM (active)

Enquiry: # get_value(readout='IC50', item= Cc1cc2nc(-c3ccc(SCC(=O)Nc4ccc(S(=O)(=O)NC5CC5)cc4)nc3)[nH]c2cc1C )
Return: 2.43 µM (active)
